Target: T1, MPDZ_10, O75970
T1 sequence (O75970 1624-1722, limits assumed, looked up): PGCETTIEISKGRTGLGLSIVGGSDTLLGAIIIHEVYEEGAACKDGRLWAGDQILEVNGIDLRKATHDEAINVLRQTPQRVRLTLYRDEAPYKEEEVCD
Test: holdup assay
Parameters: key: below the threshold = too weak to quantify, mostly under pKd 3.1 to 4
Details: plain residues with an end cap or a label only (N-terminal biotin on a linker: ado-ado)
In this section, each of the binders is paired with its reported pKd.
// return just the number, without any unit appended

>>> result_value("KLQNPNQSVV [TYRP1, P17643]")
3.54
>>> result_value("KIEDVEITLV [FCHSD2, O94868]")
3.49

Could you now look at the following binder, please?
Complete the entry with pKd for KAEEKPPSKV [SCN4B, Q8IWT1] 3.71
